Biological target: human DP2 receptor (Homo sapiens)
Experiment: DP2/CRTH2 binding assay (radioligand binding with [3H]PGD2)
Details: [3H]PGD2 binding, membranes of HEK293 cells expressing recombinant human DP2; read-out: hDP2
PROPERTY_NAME: IC50

// CC(C)(C)NC(=O)c1ccc(-c2cncc(CC(=O)O)c2)c(CN(Cc2ccccc2)C(=O)C2CC2)c1 [Compound 7] : IC50 value = 300 to 1000 nM

###

Target: human DP2 receptor (Homo sapiens, UniProt Q9Y5Y4)
Construct: expressed in transfected cells
Sequence (Q9Y5Y4 whole entry): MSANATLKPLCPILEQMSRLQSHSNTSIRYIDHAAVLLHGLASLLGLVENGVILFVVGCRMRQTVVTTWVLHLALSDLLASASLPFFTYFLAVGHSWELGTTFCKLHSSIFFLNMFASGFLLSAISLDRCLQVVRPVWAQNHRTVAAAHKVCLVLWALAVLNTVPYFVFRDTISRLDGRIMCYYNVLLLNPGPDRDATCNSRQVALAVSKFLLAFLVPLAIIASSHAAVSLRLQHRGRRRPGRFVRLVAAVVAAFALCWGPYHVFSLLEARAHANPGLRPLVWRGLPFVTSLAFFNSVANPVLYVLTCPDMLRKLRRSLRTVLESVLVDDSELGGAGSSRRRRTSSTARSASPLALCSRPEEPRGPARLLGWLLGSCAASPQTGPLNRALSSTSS
Test: DP2/CRTH2 binding assay (radioligand binding with [3H]PGD2)
Conditions: [3H]PGD2 binding, membranes of HEK293 cells expressing recombinant human DP2; read-out: hDP2
PROPERTY_NAME: IC50

Below are worked cases with known answers.
For reference, reported IC50 for CCN(Cc1cc(C(F)(F)F)ccc1-c1cncc(CC(=O)O)c1)C(=O)NCc1ccccc1 stands at < 300 nM

What the record says about CCN(Cc1cc(C(F)(F)F)ccc1-c1cncc(CC(=O)O)c1)C(=O)Cc1ccc(C)nc1 : IC50 is < 300 nM

The molecule listed as O=C(O)Cc1cncc(-c2ccc(C(F)(F)F)cc2CN(Cc2ccccc2)C(=O)C2CC2)c1 has a reported IC50 of < 300 nM

Note to self: IC50 recorded for CCN(Cc1cc(C(F)(F)F)ccc1-c1cc(CC(=O)O)cnc1O)C(=O)C1CC1 was 300 to 1000 nM

Entry CCN(Cc1cc(C(F)(F)F)ccc1-c1cncc(CC(=O)O)c1)C(=O)CCc1ccccc1 , IC50 reported as < 300 nM

Reported IC50 of CCN(Cc1cc(C(F)(F)F)ccc1-c1cncc(CC(=O)O)c1)C(=O)c1cc(OC)nc(OC)n1 : > 1000 nM

Further cases:
For reference, reported IC50 for CCN(Cc1cc(C(=O)O)ccc1-c1cncc(CC(=O)O)c1)C(=O)C1CC1 stands at < 300 nM

Item: CCN(Cc1cc(SC(C)(C)C)ccc1-c1cncc(CC(=O)O)c1)C(=O)C1CC1 | IC50: < 300 nM

###

Target: human DP2 receptor (Homo sapiens)
Construct: expressed in transfected cells
Assay: DP2/CRTH2 binding assay (radioligand binding with [3H]PGD2)
Conditions: [3H]PGD2 binding, membranes of HEK293 cells expressing recombinant human DP2; read-out: hDP2
Protocol: The ability of a compound to bind to the human DP2 receptor is assessed via a radioligand binding assay using [^3H]PGD2. […] Scintillant is then added to the plates and the radioactivity retained on the filters is determined on a Packard TopCount (Perkin Elmer). Specific binding is determined as total radioactive binding minus non-specific binding in the presence of 10 μM PGD2. IC50s were determined using GraphPad prism analysis of drug titration curves.
pIC50: −log10 of the molar value.
PROPERTY_NAME: pIC50

Sample answers from the record:
The reported human DP2 receptor (Homo sapiens) pIC50 of O=C(O)CCn1c2c(c3ccccc31)C[C@H](NS(=O)(=O)c1ccc(F)cc1)CC2 [Ramatroban, reference compound] is 6.00 to 6.52

Case CCN(Cc1cc(C(=O)O)ccc1-c1cncc(CC(=O)O)c1)C(=O)OCc1ccccc1 [Compound 1] , human DP2 receptor (Homo sapiens), pIC50 recorded as > 6.52

// returns pIC50 for CCN(Cc1cc(C(F)(F)F)ccc1-c1cncc(CC(=O)O)c1)C(=O)COC [Compound 34] with human DP2 receptor (Homo sapiens); value = 6.00 to 6.52

Further cases:
Form field, pIC50 with human DP2 receptor (Homo sapiens), item CCN(Cc1cc(C(F)(F)F)ccc1-c1cncc(CC(=O)O)c1)C(=O)Cc1ccccc1 [Compound 16] : > 6.52

The reported pIC50 value, human DP2 receptor (Homo sapiens), for CCN(Cc1cc(C(F)(F)F)ccc1-c1cc(CC(=O)O)cnc1Cl)C(=O)C1CC1 [Compound 11] reads 6.00 to 6.52

Reading of pIC50 for CNC(=O)c1ccc(-c2cncc(CC(=O)O)c2)c(CN(Cc2ccccc2)C(=O)C2CC2)c1 [Compound 6] with human DP2 receptor (Homo sapiens): 6.00 to 6.52

Item CCN(Cc1cc(C(F)(F)F)ccc1-c1cncc(CC(=O)O)c1)C(=O)c1cnccn1 [Compound 29] ; assay system human DP2 receptor (Homo sapiens); pIC50 reported as 6.00 to 6.52
